System: TERT-RPE1
Assay: Here: values are normalized to the negative (DMSO; defined as 0% autophagy induction) and positive (250nM Torin1; mTOR inhibitor; defined as maximal inducer of autophagy = 100%) control compounds and represented as % of autophagy induction. […] The impact of autophagy induction on cells is complex and depends on the affected target. As such, the magnitude of a phenotype may not be equally mirrored in the %-value of autophagy induction and vice versa. The dynamics of the induction may indicate the mode of activation: e.g. activation via phosphorylation or a signaling cascade may occur fast, while activation via transcription factors may take considerably longer. […] Of note, treatment concentrations may be sub-optimal for specific compounds, leading to false negative annotations.
Format: functional, Homo sapiens
Details: Compound Concentration 1 uM, Timepoint 60 hours, Culturing Media DMEM/F12 (1:1), 1 % Penicillin/Streptomycin, 10% Fetal bovin serum Add-On: No, Screening Media Control DMEM/F12 (1:1), Screening Media Samples DMEM/F12 (1:1)
recorded.metric: autophagy induction (%)
Kindly provide the numeric value in % only, without the unit symbol.

Take a look at these entries with their results.
O=C(Nc1ccc(C(O)(C(F)(F)F)C(F)(F)F)cc1)c1ccc(C(F)(F)F)cc1
2.099
CC(C)(Sc1ccc(CCN(CCCCC2CCCCC2)C(=O)NC2CCCCC2)cc1)C(=O)O
-17.5748
O=C(O)CCCc1cc2cc(Cl)ccc2n1S(=O)(=O)c1ccc2ncsc2c1
-20.9711
CCO[C@@H](Cc1ccc(OCCc2ccc(OS(C)(=O)=O)cc2)cc1)C(=O)O
2.851

QUERY: State the recorded autophagy induction for this entry: "CN1CCN(c2ccc(/C=C(\C#N)c3ccccc3Br)cc2)CC1.Cl.Cl"
RESULT: 1.827

QUERY: State the recorded autophagy induction for this entry: Cc1cccc(CN2CCN(C(c3ccccc3)c3ccc(Cl)cc3)CC2)c1.Cl.Cl (stereo not given)
RESULT: -24.9822

Source: ChEMBL document CHEMBL5724696
